Where do these numbers come from? They come from patent US20250163162A1.

test-target: T1, IL10Rα and IL2Rγ on human primary cells (CD8 T cells, CD4 T cells, monocytes) (human) (UniProt Q13651)
T1 sequence (looked up) 1: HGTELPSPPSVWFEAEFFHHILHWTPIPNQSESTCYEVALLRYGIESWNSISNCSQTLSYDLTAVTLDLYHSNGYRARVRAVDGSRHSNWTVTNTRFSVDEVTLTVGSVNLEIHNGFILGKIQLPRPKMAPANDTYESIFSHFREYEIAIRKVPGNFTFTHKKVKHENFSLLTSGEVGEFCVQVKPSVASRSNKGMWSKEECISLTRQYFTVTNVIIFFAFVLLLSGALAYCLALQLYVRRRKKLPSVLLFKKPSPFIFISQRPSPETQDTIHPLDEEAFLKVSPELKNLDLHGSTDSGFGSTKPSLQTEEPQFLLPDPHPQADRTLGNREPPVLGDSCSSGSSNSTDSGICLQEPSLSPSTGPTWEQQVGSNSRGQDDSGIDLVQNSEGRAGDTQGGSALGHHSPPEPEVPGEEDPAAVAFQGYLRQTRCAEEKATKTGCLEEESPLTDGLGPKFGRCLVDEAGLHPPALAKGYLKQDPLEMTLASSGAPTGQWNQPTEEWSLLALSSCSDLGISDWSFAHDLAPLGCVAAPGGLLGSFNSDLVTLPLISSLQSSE
T1 sequence (looked up) 2: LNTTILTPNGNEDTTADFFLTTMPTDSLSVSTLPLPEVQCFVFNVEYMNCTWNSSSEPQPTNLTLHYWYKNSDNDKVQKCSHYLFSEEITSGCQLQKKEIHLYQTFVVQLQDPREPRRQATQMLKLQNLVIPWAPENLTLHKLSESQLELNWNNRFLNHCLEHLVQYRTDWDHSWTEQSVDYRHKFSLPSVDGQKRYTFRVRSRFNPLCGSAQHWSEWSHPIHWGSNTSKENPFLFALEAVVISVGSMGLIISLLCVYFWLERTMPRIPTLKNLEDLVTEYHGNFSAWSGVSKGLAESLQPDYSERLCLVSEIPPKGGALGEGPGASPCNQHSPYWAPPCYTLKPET
protocol-summary: cell-based or functional assay
observed-property: pSTAT3 (MFI) in CD8 T cells at 0.1 µM
Report only the number, with the unit MFI understood.

Ask | Supply reported pSTAT3 (MFI) in CD8 T cells at 0.1 µM belonging to this binder: hIL10Ra_VHH14-hIL2Rg_VHH19, linker GGGS, tag Fc (Fc fusion, not shown: a dimerising Fc or GST) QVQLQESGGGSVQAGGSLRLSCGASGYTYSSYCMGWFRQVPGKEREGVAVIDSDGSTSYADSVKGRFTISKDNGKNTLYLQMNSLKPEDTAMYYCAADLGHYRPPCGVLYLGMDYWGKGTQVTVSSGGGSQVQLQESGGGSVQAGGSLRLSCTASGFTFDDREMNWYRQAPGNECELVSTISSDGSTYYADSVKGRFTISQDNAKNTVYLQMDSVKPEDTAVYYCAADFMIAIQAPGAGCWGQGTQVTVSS
Reply | 7330
